Molecular target: T1, Human OX40 (Sino Biological Inc) (human, UniProt P43489 29-216, limits assumed)
T1 construct: Bought soluble protein used as SPR analyte; also called huOX40
T1 sequence: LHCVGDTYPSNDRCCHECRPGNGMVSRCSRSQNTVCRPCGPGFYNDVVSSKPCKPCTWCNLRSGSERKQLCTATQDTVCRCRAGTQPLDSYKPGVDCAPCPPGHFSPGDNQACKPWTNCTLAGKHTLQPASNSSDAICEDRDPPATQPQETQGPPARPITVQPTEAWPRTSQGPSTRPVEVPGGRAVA
Test: SPR (Biacore), antibody captured via anti-human Fc, huOX40 analyte
Each record here notes measured koff.
Expressed in s⁻¹, but write only the number.

1A7.gr.3 (antibody, V domains shown, human Fc) VH: EVQLVQSGAEVKKPGASVKVSCKASGYTFTDSYMSWVRQAPGQGLEWIGDMYPDNGDSSYNQKFRERVTLTVDTSTSTAYLELSSLRSEDTAVYYCVLAPRWYFSVWGQGTLVTVSS VL: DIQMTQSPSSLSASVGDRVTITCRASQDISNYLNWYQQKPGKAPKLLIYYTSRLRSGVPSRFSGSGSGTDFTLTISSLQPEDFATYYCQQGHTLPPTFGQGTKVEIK | 0.000243
3C8.gr.8 (antibody, V domains shown, human Fc) VH: EVQLVQSGAEVKKPGASVKVSCKASGYAFTNYLIEWVRQAPGQGLEWIGVINPGSGDTYYSEKFKGRVTLTRDTSTSTAYLELSSLRSEDTAVYYCARDRLDYWGQGTLVTVSS VL: DIQMTQSPSSLSASVGDRVTITCHASQDISSYIVWYQQKPGKSFKGLIYHGTNLEDGVPSRFSGSGSGTDFTLTISSLQPEDFATYYCVHYAQFPYTFGQGTKVEIK | 0.000709
1D2.gr.2 (antibody, V domains shown, human Fc) VH: EVQLVESGPGLVKPSETLSLTCTVSGFSLTDYGVLWIRQPPGKGLEWIGMIWSGGTTDYNAAFISRVTISKDTSKNQVSLKLSSVTAADTAVYYCVREEMDYWGQGTLVTVSS VL: DIQMTQSPSSLSASVGDRVTITCRASQDISNFLNWYQQKPGKAPKLLIYYTSRLHSGVPSRFSGSGSGTDFTLTISSLQPEDFATYYCQQGNTLPWTFGQGTKVEIK | 0.0178
1D2.gr.3 (antibody, V domains shown, human Fc) VH: EVQLVESGPGLVKPSETLSLTCTVSGFSLTDYGVLWVRQPPGKGLEWLGMIWSGGTTDYNAAFISRLTISKDTSKNQVSLKLSSVTAADTAVYYCVREEMDYWGQGTLVTVSS VL: DIQMTQSPSSLSASVGDRVTITCRASQDISNFLNWYQQKPGKAPKLLIYYTSRLHSGVPSRFSGSGSGTDFTLTISSLQPEDFATYYCQQGNTLPWTFGQGTKVEIK | 0.0163

Task: I would be grateful if you could share the reported koff for 1A7.gr.6 (antibody, V domains shown, human Fc) VH: EVQLVQSGAEVKKPGASVKVSCKASGYTFTDSYMSWVRQAPGQGLEWIGDMYPDNGDSSYNQKFRERVTITVDTSTSTAYLELSSLRSEDTAVYYCVLAPRWYFSVWGQGTLVTVSS VL: DIQMTQSPSSLSASVGDRVTITCRASQDISNYLNWYQQKPGKTVKLLIYYTSRLRSGVPSRFSGSGSGKDYTLTISSLQPEDFATYFCQQGHTLPPTFGQGTKVEIK .
Output: 6.93e-05
